Some molecules, each annotated with its measured TGI.
- Test system: XF 498 CNS
- TEST: NCI tumour cell line growth inhibition, 48 h

MOLECULE: COc1ccc(OCC(=O)O)c(C(=O)CCC(=O)O)c1
TGI: > 100 µM
--
MOLECULE: CCCSS[C@H]1NC(=O)[C@H]1NC(=O)COc1ccccc1
TGI: 33.8 µM
--
MOLECULE: N/C(=N\N=C\c1ccc2c(c1)OCCO2)NO
TGI: > 30.6 µM
--
MOLECULE: CCN(CC)C(=O)C(C)n1cc(C)c(=O)[nH]c1=O (stereo not given)
TGI: > 100 µM
--
MOLECULE: Cn1cc(C(=O)C[n+]2ccccc2)c2ccccc21
TGI: > 100 µM
--
MOLECULE: C=CCC1C(=O)CC2(C)CC(=O)C(CC=C)C12C (stereo not given)
TGI: > 100 µM

*Q* Which TGI is listed for CC(=O)C1=C(O)CC2CC3c4[nH]c5ccccc5c4CCN3CC2C1 (stereo not given) ?
*A* > 100 µM

*Q* Next molecule: Cc1cc2c(C)nn(Cc3ccc(Cl)cc3)c2c(C#N)c1C
*A* > 100 µM

*Q* Another molecule: CC(C)CC(NC(=O)OC(C)(C)C)C(=O)Nc1ccc(Nc2nc(F)nc(-c3c4ccccc4cn3C)n2)cc1 (stereo not given)
*A* > 100 µM

*Q* Ok, now CCN1CCC(O)(c2ccc(Cl)cc2)C(C(=O)c2ccc(Cl)cc2)C1 (stereo not given)
*A* > 100 µM
